normalized growth listing for selected compounds.
Assay: chemical genetic growth profiling, strain panel (AID 1159580);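 note: tested at 20 µM; growth read once vehicle control cultures reached saturation at 30 °C; 1 = growth at the plate median or of vehicle wells; lower values mean less growth of the strain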
Conditions: S. cerevisiae deletion strains, growth OD, locus YMR307W, strain GAS1, active compounds read low
Out of some 5,500 compounds screened, about 2,000 (36%) were called active. Another 18% or so got no clear call; they are omitted. The list shows a part of the results.
Observed Property: normalized growth

CN1CCCC1c1cccnc1 (stereo not given)
1.03
COC(=O)C(N)CS (stereo not given)
1
N#CC(=C(\N)Sc1ccccc1N)/C(C#N)=C(/N)Sc1ccccc1N
0.995
CCC1(O)C(=O)OCc2c1cc1n(c2=O)Cc2cc3ccccc3nc2-1 (stereo not given)
0.904
O=C(Nc1ccc(OC(F)(F)F)cc1)Nc1cccc(C(=O)O)c1
1.08
CC[C@@]1(O)C(=O)OCc2c1cc1n(c2=O)Cc2cc3cc(O)ccc3nc2-1
1.03
CCOC(=O)/C(C#N)=C/N=C(N/N=C\c1c(Cl)cccc1Cl)SC
0.799
CCOC(=O)c1nnc2cc(C)nn2c1C
0.989
CC(C)=CC1C(CO)C1(C)C (stereo not given)
1.11
CCOC(=O)/C(C#N)=C/Nc1ccc2c(c1)OCO2
0.884
CCN(CCS(=O)(=O)c1ccc(C)cc1)S(=O)(=O)c1ccccc1
0.969
O=[N+]([O-])c1ccc(Oc2c(Cl)cccc2Cl)c(Cl)c1Oc1c(Cl)cccc1Cl
1.02
CC(C)(C)C1=CC(=O)C=C(C(C)(C)C)C1=O
1.02
O=C(O)c1oc(C(=O)O)c(OCc2ccccc2)c1OCc1ccccc1
1.03
CC1(C)C(O)CC(=O)C2(C)C1CC(O)C1(C)C2CCC2(C)C(c3ccoc3)OC(=O)C3OC321 (stereo not given)
0.975
C[C@]12CCC(=O)C=C1CCc1ccc(O)cc12
1.04
CSCCC(N)C(=O)NC(CC(C)C)C(=O)NC(Cc1ccccc1)C(=O)O (stereo not given)
0.996
c1ccc(-c2ncc3ccccn23)cc1
0.711
C[C@H]1[C@H](C)CC[C@]2(C(=O)O)CC[C@]3(C)C(=CCC4[C@@]5(C)C[C@@H](O)[C@H](O)[C@@](C)(CO)C5[C@H](O)C[C@]43C)[C@H]12 (stereo not given in full)
0.6
CC1(C)C(=O)CC[C@@]2(C)C1C[C@@H](O)[C@@]1(C)C3=CC(=O)O[C@@H](c4ccoc4)[C@]3(C)CCC21 (stereo not given in full)
0.91
N#Cc1c(Cl)cccc1N1CCC(C(=O)NC(=O)Nc2ccc(Cl)cc2)CC1
1.03
Cc1ccc(Sc2nc(C)c([N+](=O)[O-])c(C)c2C#N)cc1
0.763
CO[C@@H]1[C@@H](OC(N)=O)[C@@H](O)[C@H](Oc2ccc3c(O)c(NC(=O)c4ccc(O)c(CC=C(C)C)c4)c(=O)oc3c2C)OC1(C)C
1.02
COc1cc(C(=O)OCCCN2CCCN(CCCOC(=O)c3cc(OC)c(OC)c(OC)c3)CC2)cc(OC)c1OC
1.01
C[C@@H]1CC[C@@]23CCC4(C)[C@@](C=CC5[C@@]6(C)CCC(=O)C(C)(C)C6CC[C@]54C)(OC2=O)C3[C@H]1C (stereo not given in full)
1.06
O=C(O)CCC(=O)N1CCCC1C(=O)O (stereo not given)
0.972
CCC(=O)OCC(=O)C1(OC(=O)CC)C(C)CC2C3CCC4=CC(=O)C=CC4(C)C3(Cl)C(O)CC21C (stereo not given)
1.09
Nc1nc(/C(=C/CC(=O)O)C(=O)N[C@@H]2C(=O)N3C(C(=O)O)=CCS[C@H]23)cs1
0.996
COC1CC(O[C@H]2CC[C@]3(C=O)C4CC[C@]5(C)C(C6=CC(=O)OC6)CC[C@]5(O)C4CC[C@]3(O)C2)OC(C)C1O (stereo not given in full)
1.16
N#Cc1c(Cl)cccc1Cl
1.01
NC[C@H]1O[C@H](O[C@H]2[C@H](O)[C@@H](O[C@H]3O[C@H](CO)[C@@H](O)[C@H](N)[C@H]3O)[C@H](N)C[C@@H]2N)[C@H](N)[C@@H](O)[C@@H]1O
1.16
CCOC(=O)C1=C(O)C(=O)N(Cc2ccccc2)C1
1.03
O=C(Oc1ccccc1C(=O)O)c1ccccc1O
0.999
Cc1ccc(Cl)cc1NC(=S)N(CCC#N)/N=C\c1ccc2c(c1)OCO2
0.853
CCN(CC)C(=O)N[C@@H]1C[C@@H]2c3cccc4[nH]cc(c34)C[C@H]2N(C)C1
1.01
Oc1ccc2c3c1OC1[C@@H](O)CC[C@@]4(O)[C@@H](C2)N(CC2CCC2)CC[C@]314 (stereo not given in full)
1.04
CO[C@@H]1C[C@H](O[C@H]2CC[C@]3(C)C4CC[C@]5(C)[C@@H](C6=CC(=O)OC6)CC[C@]5(O)[C@@H]4CC[C@]3(O)C2)O[C@H](C)[C@@H]1O (stereo not given in full)
0.815
CC[C@@]1(O)C(=O)OCc2c1cc1n(c2=O)Cc2cc3ccccc3nc2-1
0.461
O=[N+]([O-])c1cnc2ccccn12
1.1
COP(N)(=O)SC (stereo not given)
1.02

====

Assay: chemical genetic growth profiling, strain panel (AID 1159580);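 note: tested at 20 µM; growth read once vehicle control cultures reached saturation at 30 °C; 1 = growth at the plate median or of vehicle wells; lower values mean less growth of the strain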
Settings: S. cerevisiae deletion strains, growth OD, locus YNL248C, strain rpa49, active compounds read low
Screen size: about 5,500 compounds; about 2,000 (36%) were called active. Not shown: some 18% with an inconclusive outcome. Some of the results follow.
Observed Property: normalized growth

CCC(=O)NCC[C@@H]1CCc2ccc3c(c21)CCO3
1.01 (inactive)
CC(C)(C)NCC(O)COc1cccc2c1CCCC2=O (stereo not given)
0.98 (inactive)
CC1=CC(=O)C2C(C)(C)CCC[C@]2(C)[C@@]1(O)CCc1ccoc1 (stereo not given in full)
0.998 (inactive)
C=CCSSCC=C
0.96 (inactive)
CC1(C)S[C@@H]2C(N3C(=O)[C@@H](c4ccccc4)NC3(C)C)C(=O)N2[C@H]1C(=O)O (stereo not given in full)
1.03 (inactive)
C[C@@H]1CCC2[C@](C)(CO)[C@@H](O)CC[C@]2(C)[C@@]12CC[C@@](CO)(CCO)O2 (stereo not given in full)
0.976 (inactive)
COc1ccc(-c2cc(=O)c3c(OC)c(OC)c(OC)c(OC)c3o2)cc1OC
0.995 (inactive)
COc1nc(NC(C)C)nc(NC(C)C)n1
1.04 (inactive)
COc1ccc(-c2cc(=O)c3c(O)c(OC)c(O[C@H]4O[C@H](CO[C@@H]5O[C@@H](C)[C@H](O)[C@@H](O)[C@H]5O)[C@@H](O)[C@H](O)[C@H]4O)cc3o2)cc1
0.996 (inactive)
CC(C)Nc1nc(Cl)nc(NC(C)C)n1
0.982 (inactive)

====

Assay: chemical genetic growth profiling, strain panel (AID 1159580);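 note: tested at 20 µM; growth read once vehicle control cultures reached saturation at 30 °C; 1 = growth at the plate median or of vehicle wells; lower values mean less growth of the strain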
Settings: S. cerevisiae deletion strains, growth OD, locus YBR136W, strain MEC1, active compounds read low
In all, about 5,500 compounds went through this assay and about 2,000 (36%) were called active. Inconclusive results (about 18%) are left out. Some of the results follow.
Observed Property: normalized growth

N#Cc1nccnc1N1CCN(C(=O)Nc2cc(Cl)cc(Cl)c2)CC1
0.972
O=c1[nH][nH]c(=O)n1CCCc1cc2cccc3ccc4cccc1c4c32
0.988
CO/N=C1/CC(C)(C)Cc2c(-c3ccn(C(=O)Nc4cccc(Cl)c4)n3)sc(SC)c21
0.969
CC(C)(C)NC(=S)N/N=C\c1cc(Br)c(O)c(Br)c1
0.965
OC(COCc1ccccc1)Cn1c2ccccc2c2ccccc21 (centres undefined)
0.952
Cc1cc(-c2onc(C)c2C(=O)Sc2ccccc2)no1
0.961
O=C(Nc1ccccc1C(=O)O)OCC1c2ccccc2-c2ccccc21
0.987
FC(F)(F)Oc1ccc(OCc2n[nH]c(=S)n2-c2ccc(Cl)cc2)cc1
0.996
ONC(=Nc1ccccc1Cl)c1ccccc1Cl
0.986
N/C(=N/OC(=O)Nc1cccc(C(F)(F)F)c1)c1ccc(OC(F)(F)F)cc1
0.985
N/C(=N/OC(=O)c1cnn(-c2ccc([N+](=O)[O-])cc2)c1C(F)(F)F)c1ccc(Cl)cc1
0.971
O=C(NNc1cc(C(F)(F)F)cc(C(F)(F)F)c1)c1cnc2n(c1=O)CCS2
0.983
CC1(C)C=Cc2cc(/C(N)=N\OC(=O)Nc3cccc(C(F)(F)F)c3)ccc2O1
0.972
CN(C)/C=C1\CSc2ccc(Cl)cc2C1=O
0.949

====

Test: chemical genetic growth profiling, strain panel (AID 1159580);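 note: tested at 20 µM; growth read once vehicle control cultures reached saturation at 30 °C; 1 = growth at the plate median or of vehicle wells; lower values mean less growth of the strain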
Conditions: S. cerevisiae deletion strains, growth OD, locus YLR384C, strain iki3, active compounds read low
Screen size: about 5,500 compounds; about 2,000 (36%) were called active. Another 18% or so got no clear call; they are omitted. This is one part of the list.
normalized growth listing for selected molecules.
Observed Property: normalized growth

Oc1ccc([C@H]2Oc3cc(O)cc(O)c3C[C@H]2O)cc1
0.991
CO[C@@H]1[C@@H](OC(N)=O)[C@@H](O)[C@H](Oc2ccc3c(O)c(NC(=O)c4ccc(O)c(CC=C(C)C)c4)c(=O)oc3c2C)OC1(C)C
1.04
C[C@@H]1CC[C@@]23CCC4(C)[C@@](C=CC5[C@@]6(C)CCC(=O)C(C)(C)C6CC[C@]54C)(OC2=O)C3[C@H]1C (stereo partly drawn)
0.989
CC1(C)O[C@@H]2CC3C4C[C@H](F)C5=CC(=O)CC[C@]5(C)C4[C@@H](O)C[C@]3(C)[C@]2(C(=O)CO)O1 (stereo partly drawn)
0.986
C[C@@H]1CC[C@@]23CCC4(C)[C@@](C=CC5[C@@]6(C)CC[C@H](O)C(C)(C)C6CC[C@]54C)(OC2=O)C3[C@H]1C (stereo partly drawn)
0.981
Cc1ccc(-c2nc3ccc(C)cn3c2CC(=O)N(C)C)cc1
0.975
NC[C@@H]1O[C@H](O[C@@H]2[C@@H](CO)OC(O[C@@H]3[C@@H](O)[C@H](N)C[C@H](N)[C@H]3O[C@H]3O[C@H](CO)[C@@H](O)[C@H](O)[C@H]3N)[C@@H]2O)[C@H](N)[C@@H](O)[C@@H]1O (stereo partly drawn)
0.99
CC(=O)O[C@@H]1CC2C(C)(CC[C@H](O)C2(C)C)C2CC[C@]3(C)C(=CC(=O)O[C@H]3c3ccoc3)C21C (stereo partly drawn)
0.978
